- TEST_TARGET: Fuc(a1-2)Gal(b1-3)[Fuc(a1-4)]GlcNAc(b1-3)[Fuc(a1-3)[Gal(b1-4)]GlcNAc(b1-6)]Gal(b1-4)Glc
- METHOD: glycan array binding signal (z-score within array); higher = stronger binding
- MEASUREMENT_CONDITIONS: glycan notation: IUPAC condensed, linker removed
This excerpt belongs to a sample that is enriched for the strongest signals.
TEST_READOUT: glycan array binding signal (z-score)
Please reply with the number alone, leaving off any unit.

BINDER: SJCP1084 (Schistosoma japonicum) (protein) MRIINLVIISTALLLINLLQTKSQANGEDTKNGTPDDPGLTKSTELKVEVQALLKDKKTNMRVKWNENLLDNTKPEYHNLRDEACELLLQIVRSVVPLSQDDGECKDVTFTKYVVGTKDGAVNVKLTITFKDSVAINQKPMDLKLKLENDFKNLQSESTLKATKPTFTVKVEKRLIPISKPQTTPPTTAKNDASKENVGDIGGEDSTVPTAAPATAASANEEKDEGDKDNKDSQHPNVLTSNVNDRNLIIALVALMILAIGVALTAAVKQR
TEST_READOUT: glycan array binding signal (z-score)
MEAS_VALUE: -0.831

Inquiry: Item F17aG (Escherichia coli), Q99003 (protein) MTNFYKVFLAVFILVCCNISQAAVSFIGSTENDVGPSLGSYSRTHAMDNLPFVYDTRNKIGYQNANVWHISKGFCVGLDGKVDLPVVGSLDGQSIYGLTEEVGLLIWMGDTKYSRGTAMSGNSWENVFSGWCVGANTASTQGLSVRVTPVILKRNSSARYSVQKTSIGSIRMRPYNGSSAGSVQTTVNFSLNPFTLNDTVTSCRLLTPSAVNVSLAAISAGQLPSSGDEVVAGTTSLKLQCDAGVTVWATLTDATTPSNRSDILTLTGASTATGVGLRIYKNTDSTPLKFGPDSPVKGNENQWQLSTGTETSPSVRLYVKYVNTGEGINPGTVNGISTFTFSYQ has what recorded glycan array binding signal (z-score)?
Reply text: -0.139

From: the supplement of paper PMC8728848
